Hey, just so you know, these numbers are from PubChem BioAssay AID2060904.

system: 349418-098-R-PDC complex spheroid viability; assay: Anticancer human tumor 349418-098-R-PDC patient-derived lung adenocarcinoma cell line growth inhibition [RAS]; details: second compound 0.000949 µM; first compound 0.316 µM; stronger effect = lower value;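 also: spheroids exposed to compound for seven days before viability readout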
# thresholds on viability, T/C define classes: range A: < 20%; range B: ≥ 20% and < 90%; range C: ≥ 90%

The examples below pair each entry with its known result.
MOLECULE: CC(C)NCC(C(=O)N1CCN(c2ncnc3c2C(C)CC3O)CC1)c1ccc(Cl)cc1 (stereo unspecified) + CCn1c(-c2cccnc2C(C)OC)c2c3cc(ccc31)N1CCOC(CC(NC(=O)C(C(C)C)N(C)C(=O)C3(F)CCN(C(=O)C#CC(C)(C)N(C)C)CC3)C(=O)N3CCCC(N3)C(=O)OCC(C)(C)C2)C1
CLASSIFICATION: range B
--
MOLECULE: CC1(O)CCCC1n1c(=O)c(C(F)F)cc2cnc(NC3CCN(S(C)(=O)=O)CC3)nc21 (stereo unspecified) + CCn1c(-c2cc(N3CCN(C)CC3)cnc2C(C)OC)c2c3cc(ccc31)-c1csc(n1)CC(NC(=O)C1CC1C)C(=O)N1CCCC(N1)C(=O)OCC(C)(C)C2
CLASSIFICATION: range B
--
MOLECULE: CCC(CC)c1cc(NC2CCC(N)C2)n2nccc2n1 (stereo unspecified) + CCn1c(-c2cc(N3CCN(C)CC3)cnc2C(C)OC)c2c3cc(ccc31)-c1csc(n1)CC(NC(=O)C1CC1C)C(=O)N1CCCC(N1)C(=O)OCC(C)(C)C2
CLASSIFICATION: range C

Assign a category based on measured viability, T/C for CC1(O)CCCC1n1c(=O)c(C(F)F)cc2cnc(NC3CCN(S(C)(=O)=O)CC3)nc21 (stereo unspecified) + CCn1c(-c2cccnc2C(C)OC)c2c3cc(ccc31)N1CCOC(CC(NC(=O)C(C(C)C)N(C)C(=O)C3(F)CCN(C(=O)C#CC(C)(C)N(C)C)CC3)C(=O)N3CCCC(N3)C(=O)OCC(C)(C)C2)C1 and give only the class name.
range B

Now consider C=CC(=O)Nc1cc(Nc2nccc(-c3cn(C)c4ccccc34)n2)c(OC)cc1N(C)CCN(C)C + CCn1c(-c2cc(N3CCN(C)CC3)cnc2C(C)OC)c2c3cc(ccc31)-c1csc(n1)CC(NC(=O)C1CC1C)C(=O)N1CCCC(N1)C(=O)OCC(C)(C)C2 .
range C

Now consider Nc1ccn(C2OC(CO)C(O)C2(F)F)c(=O)n1 (stereo unspecified) + CCn1c(-c2cc(N3CCN(C)CC3)cnc2C(C)OC)c2c3cc(ccc31)-c1csc(n1)CC(NC(=O)C1CC1C)C(=O)N1CCCC(N1)C(=O)OCC(C)(C)C2 .
range A

Also CC(Nc1ccc2c(c1)OCCn1cc(N3C(=O)OCC3C(F)F)nc1-2)C(N)=O (stereo unspecified) + CCn1c(-c2cccnc2C(C)OC)c2c3cc(ccc31)N1CCOC(CC(NC(=O)C(C(C)C)N(C)C(=O)C3(F)CCN(C(=O)C#CC(C)(C)N(C)C)CC3)C(=O)N3CCCC(N3)C(=O)OCC(C)(C)C2)C1 ?
range A
